# Tested on: SR
# test.description: NCI tumour cell line growth inhibition, 48 h
Activity calls are given as the source filed them. No stated cut-off is given here; in the data, active = GI50 up to about 1.1 µM and inactive = higher.
recorded.metric: GI50

input: Return reported GI50; argument: O=P1(Oc2ccccc2)N(CCCl)CCN1c1ccccc1 (stereo not given)
output: 79.3 µM (inactive)

input: Return reported GI50; argument: COc1cc(OC)cc(OCc2nc3cc(C(F)(F)F)ccc3nc2-c2ccccc2)c1
output: > 100 µM (inactive)

input: Return reported GI50; argument: COc1ccc(C(N)=O)cc1/N=N/N(C)C
output: 39.8 µM (inactive)

input: Return reported GI50; argument: CC1C2CC=CC(=O)[C@@]2(C)CCC12OCCO2 (stereo not given in full)
output: > 100 µM (inactive)

input: Return reported GI50; argument: COC(=O)c1ccc(CCC2=CC(=O)C=CC2=O)cc1
output: 2.49 µM (inactive)

input: Return reported GI50; argument: CCOC(=O)C1=C(C)N(c2ccccc2)C2=C(C(=O)N(c3ccccc3)C2c2ccccc2)C1c1ccccc1 (stereo not given)
output: > 100 µM (inactive)

input: Return reported GI50; argument: CC(=O)CC(=O)CCCC(=O)Nc1ccc(Cl)cc1Cl
output: > 100 µM (inactive)

input: Return reported GI50; argument: Cc1cccc(C(C)(C)C)c1NC(=O)C(=O)C(c1cnc2ccccc2n1)[N+](=O)[O-] (stereo not given)
output: > 100 µM (inactive)

input: Return reported GI50; argument: O=S(=O)(CCn1c(Sc2ccccc2)c(Sc2ccccc2)c2ccccc21)c1ccccc1
output: > 100 µM (inactive)

input: Return reported GI50; argument: CC(=O)Nc1ccc(NNc2cc(=O)n(C)c(=O)[nH]2)cc1
output: 3.47 µM (inactive)

input: Return reported GI50; argument: N#Cc1c(N2CCCC2)ncn(Cc2ccccc2)c1=S
output: > 100 µM (inactive)

input: Return reported GI50; argument: Cc1cn(C2OC(CO[Si](C)(C)C(C)(C)C)/C(=C\C#N)C2O[Si](C)(C)C(C)(C)C)c(=O)[nH]c1=O (stereo not given)
output: > 100 µM (inactive)

input: Return reported GI50; argument: CCc1ccc(CCC(=O)O)nc1
output: > 100 µM (inactive)

input: Return reported GI50; argument: Cc1cc(C)c2c(=O)n(CN3CCC(O)(c4ccccc4)CC3)sc2n1
output: 29.9 µM (inactive)

input: Return reported GI50; argument: COC(=O)c1ccc(O)c2nc3c(C=O)c(O)cc(O)c3nc12 [LOMOFUNGIN]
output: 10.6 µM (inactive)
